Target: T1, MBP-tagged OSGEP (human, UniProt Q9NPF4 1-335)
T1 construct: human OSGEP (gene bought from DNAsu); Cloned into a modified pMal-c2X vector; also called MBP-OSGEP; Kae1 (yeast ortholog); source: E. coli BL21-CodonPlus (DE3), purified (amylose resin, HiTrap Q anion exchange)
T1 sequence (looked up): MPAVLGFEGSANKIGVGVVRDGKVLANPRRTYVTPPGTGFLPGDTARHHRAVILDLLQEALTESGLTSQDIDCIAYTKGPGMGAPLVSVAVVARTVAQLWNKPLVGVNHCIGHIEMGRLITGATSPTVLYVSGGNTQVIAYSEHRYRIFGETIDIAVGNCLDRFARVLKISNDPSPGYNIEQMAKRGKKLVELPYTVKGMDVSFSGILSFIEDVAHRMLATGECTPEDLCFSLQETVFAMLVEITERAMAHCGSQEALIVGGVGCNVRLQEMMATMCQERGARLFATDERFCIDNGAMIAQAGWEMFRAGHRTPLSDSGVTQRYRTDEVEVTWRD
Assay: pull-down; GST-tagged PRPK proteins captured on 20 µl glutathione Sepharose 4B from BL21 lysates, then incubated with about 15 µg purified His-TPRKB or MBP-OSGEP; 20 mM Tris-HCl pH 8.0, 300 mM NaCl, 0.1% Nonidet P-40, 5% glycerol, 2 mM DTT, 0.4 mM PMSF; 2 h at 4°C; 4 washes; Western blot with anti-His or anti-MBP
Conditions: both partners purified
metric-name: binding result

1) GST-tagged PRPK S250A (enzyme, human, UniProt Q96S44 1-253, looked up, human p53-related protein kinase (PRPK, TP53RK) with S250A; source: E. coli BL21 lysate, captured on glutathione Sepharose 4B resin) MAAARATTPADGEEPAPEAEALAAARERSSRFLSGLELVKQGAEARVFRGRFQGRAAVIKHRFPKGYRHPALEARLGRRRTVQEARALLRCRRAGISAPVVFFVDYASNCLYMEEIEGSVTVRDYIQSTMETEKTPQGLSNLAKTIGQVLARMHDEDLIHGDLTTSNMLLKPPLEQLNIVLIDFGLSFISALPEDKGVDLYVLEKAFLSTHPNTETVFEAFLKSYSTSSKKARPVLKKLDEVRLRGRKRAMVG | binds
2) GST-tagged PRPK (wild type) (enzyme, human, UniProt Q96S44 1-253, looked up, human p53-related protein kinase (PRPK, TP53RK); Cloned into pGEX-6p-1; Parent of the GST-PRPK mutants; also called GST-PRPK; TP53RK; source: E. coli BL21 lysate, captured on glutathione Sepharose 4B resin) MAAARATTPADGEEPAPEAEALAAARERSSRFLSGLELVKQGAEARVFRGRFQGRAAVIKHRFPKGYRHPALEARLGRRRTVQEARALLRCRRAGISAPVVFFVDYASNCLYMEEIEGSVTVRDYIQSTMETEKTPQGLSNLAKTIGQVLARMHDEDLIHGDLTTSNMLLKPPLEQLNIVLIDFGLSFISALPEDKGVDLYVLEKAFLSTHPNTETVFEAFLKSYSTSSKKARPVLKKLDEVRLRGRKRSMVG | binds
3) GST-tagged PRPK K65A (enzyme, human, UniProt Q96S44 1-253, looked up, human p53-related protein kinase (PRPK, TP53RK) with K65A; source: E. coli BL21 lysate, captured on glutathione Sepharose 4B resin) MAAARATTPADGEEPAPEAEALAAARERSSRFLSGLELVKQGAEARVFRGRFQGRAAVIKHRFPAGYRHPALEARLGRRRTVQEARALLRCRRAGISAPVVFFVDYASNCLYMEEIEGSVTVRDYIQSTMETEKTPQGLSNLAKTIGQVLARMHDEDLIHGDLTTSNMLLKPPLEQLNIVLIDFGLSFISALPEDKGVDLYVLEKAFLSTHPNTETVFEAFLKSYSTSSKKARPVLKKLDEVRLRGRKRSMVG | binds
